# assay info: Stability of 1.25 mM coelenterazine in 50% ethanol and 50% propylene glycol with or without 225 mM ATT, HPLC and Arrhenius plots
# Type: physicochemical
# run parameters: solution of 50% ethanol and 50% propylene glycol, 20° C.; read-out: T1/2 Calculated from Arrhenius (converted)
# Protocol: The stability of coelenterazine in the presence and absence of ATT was measured over time at different temperatures. […] These two solutions were incubated at −20° C., room temperature (RT), 40° C., or 60° C. and analyzed at 0 days, 1 day, 3 days, 7 days, 15 days, and 30 days. Following incubation, high performance liquid chromatography (HPLC) was utilized to identify the components of the respective solutions at each time point. […] Absorbance was measured at 262 nanometers (nm). […]
readout: half-life at 1.25 mM (days)
# unit: days | format: bare number

half-life at 1.25 mM for O=c1c(Cc2ccc(O)cc2)nc2c(Cc3ccccc3)[nH]c(-c3ccc(O)cc3)cn1-2 is 35.5

* * *

# assay info: Stability of 1.25 mM coelenterazine-h-h in 50% ethanol and 50% propylene glycol with or without 225 mM ATT, HPLC and Arrhenius plots
# Assay type: physicochemical
# run parameters: solution in 50% ethanol and 50% propylene glycol, 20° C.; read-out: T1/2 Calculated from Arrhenius (converted)
readout: half-life at 1.25 mM
Give the number first and the unit second.

half-life at 1.25 mM for O=c1c(Cc2ccccc2)nc2c(Cc3ccccc3)[nH]c(-c3ccccc3)cn1-2 [Coelenterazine-h-h (1193-25-1), coelenterazine-h-h] is 172 days

* * *

# assay info: Stability of 1.25 mM coelenterazine-h in 50% ethanol and 50% propylene glycol with or without 225 mM ATT, HPLC and Arrhenius plots
# Format: physicochemical
# run parameters: solution of 50% ethanol and 50% propylene glycol, 60° C.; read-out: T1/2 Estimated from graph (converted)
# Experimental: The stability of coelenterazine-h in the presence and absence of ATT was measured over time at different temperatures. […] These two solutions were incubated at −20° C., room temperature (RT), 40° C., or 60° C. and analyzed at for 0 days, 1 day, 3 days, 7 days, 15 days, and 30 days. Following incubation, high performance liquid chromatography (HPLC) was utilized to identify the components of the respective solutions at each time point. […] Absorbance was measured at 262 nanometers (nm). […]
readout: half-life at 1.25 mM

half-life at 1.25 mM for O=c1c(Cc2ccccc2)nc2c(Cc3ccccc3)[nH]c(-c3ccc(O)cc3)cn1-2 is 48 h

* * *

# assay info: Stability of 1.25 mM coelenterazine-h-h in 50% ethanol and 50% propylene glycol with or without 225 mM ATT, HPLC and Arrhenius plots
# Type: physicochemical
# run parameters: solution in 50% ethanol and 50% propylene glycol, 40° C.; read-out: T1/2 Calculated from Arrhenius (converted)
readout: half-life at 1.25 mM (days)
# unit: days | format: bare number

half-life at 1.25 mM for O=c1c(Cc2ccccc2)nc2c(Cc3ccccc3)[nH]c(-c3ccccc3)cn1-2 is 16.9

* * *

# assay info: Stability of 1.25 mM coelenterazine-h-h in 50% ethanol and 50% propylene glycol with or without 225 mM ATT, HPLC and Arrhenius plots
# Format: physicochemical
# run parameters: solution of 50% ethanol and 50% propylene glycol, 40° C.; read-out: T1/2 Estimated from graph (converted)
readout: half-life at 1.25 mM

half-life at 1.25 mM for O=c1c(Cc2ccccc2)nc2c(Cc3ccccc3)[nH]c(-c3ccccc3)cn1-2 is 27 days

* * *

# assay info: Stability of 1.25 mM coelenterazine-h-h in 50% ethanol and 50% propylene glycol with or without 225 mM ATT, HPLC and Arrhenius plots
# Type: physicochemical
# run parameters: solution of 50% ethanol and 50% propylene glycol, 60° C.; read-out: T1/2 Estimated from graph (converted)
readout: half-life at 1.25 mM (h)
# unit: h | format: bare number

half-life at 1.25 mM for O=c1c(Cc2ccccc2)nc2c(Cc3ccccc3)[nH]c(-c3ccccc3)cn1-2 [Coelenterazine-h-h (1193-25-1), coelenterazine-h-h] is 192

Origin of measurements: patent US9676997B2
